Form field: Relative Binding Affinity, rGR, Relative Affinity (Dexamethasone) (one value per entry).
- measuredTarget: glucocorticoid receptor (rGR) (Oryctolagus cuniculus, UniProt P59667)
- Construct: the source of the glucocorticoid receptor was the thymus of the estrogen-primed immature female rabbit; from tissue; host or cells: thymus of the estrogen-primed immature female rabbit
- Sequence (P59667 whole entry): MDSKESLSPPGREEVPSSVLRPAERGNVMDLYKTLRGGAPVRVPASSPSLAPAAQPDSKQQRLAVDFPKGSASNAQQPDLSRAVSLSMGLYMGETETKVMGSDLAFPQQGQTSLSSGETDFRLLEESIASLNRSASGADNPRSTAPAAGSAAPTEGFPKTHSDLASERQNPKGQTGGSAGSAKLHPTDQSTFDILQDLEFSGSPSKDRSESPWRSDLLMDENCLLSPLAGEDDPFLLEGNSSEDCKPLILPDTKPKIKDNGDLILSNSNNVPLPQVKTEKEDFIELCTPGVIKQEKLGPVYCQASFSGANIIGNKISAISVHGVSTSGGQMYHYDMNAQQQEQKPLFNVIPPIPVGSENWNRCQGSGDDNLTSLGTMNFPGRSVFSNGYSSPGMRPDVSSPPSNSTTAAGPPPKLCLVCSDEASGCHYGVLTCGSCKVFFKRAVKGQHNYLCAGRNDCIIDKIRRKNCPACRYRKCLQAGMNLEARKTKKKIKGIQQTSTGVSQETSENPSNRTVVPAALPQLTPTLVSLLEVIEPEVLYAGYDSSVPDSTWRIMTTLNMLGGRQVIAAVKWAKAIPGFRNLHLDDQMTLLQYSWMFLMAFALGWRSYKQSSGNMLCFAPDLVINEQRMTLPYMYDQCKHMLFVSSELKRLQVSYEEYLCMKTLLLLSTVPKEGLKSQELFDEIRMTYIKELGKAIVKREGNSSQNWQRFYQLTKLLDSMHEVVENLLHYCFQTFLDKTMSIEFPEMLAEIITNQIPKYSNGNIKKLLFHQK
- methodNotes: Receptor binding (rabbit), glucocorticoid receptor
- particulars: relative to dexamethasone = 100
// return just the number, without any unit appended

Recorded Relative Binding Affinity, rGR, Relative Affinity (Dexamethasone), per entry:
# compoundString, numericValue
records = [
    ("CC#C[C@]1([N+](=O)[O-])CC[C@H]2[C@@H]3CCC4=CC(=O)CCC4=C3[C@@H](c3ccc(C(C)=O)cc3)C[C@@]21C", 20),
    ("CSc1ccc([C@H]2C[C@@]3(C)[C@@H](CC[C@]3(CCCO)[N+](=O)[O-])[C@@H]3CCC4=CC(=O)CCC4=C32)cc1", 3),
    ("CN(C)c1ccc([C@H]2C[C@@]3(C)[C@@H](CC[C@]3(/C=C/CO)[N+](=O)[O-])[C@@H]3CCC4=CC(=O)CCC4=C32)cc1", 16),
]

Let us examine a further case.
Ask | Fill in the blank: the reported Relative Binding Affinity, rGR, Relative Affinity (Dexamethasone) of CN(C)c1ccc([C@H]2C[C@@]3(C)[C@@H](CC[C@]3(CCCO)[N+](=O)[O-])[C@@H]3CCC4=CC(=O)CCC4=C32)cc1 is ____.
Reply | 74

* * *

- measuredTarget: progestin receptor (rPR) (Oryctolagus cuniculus)
- Construct: hormone receptors for progestins and glucocorticoids from rabbits; from tissue; host or cells: rabbit
- Sequence (P06186 whole entry): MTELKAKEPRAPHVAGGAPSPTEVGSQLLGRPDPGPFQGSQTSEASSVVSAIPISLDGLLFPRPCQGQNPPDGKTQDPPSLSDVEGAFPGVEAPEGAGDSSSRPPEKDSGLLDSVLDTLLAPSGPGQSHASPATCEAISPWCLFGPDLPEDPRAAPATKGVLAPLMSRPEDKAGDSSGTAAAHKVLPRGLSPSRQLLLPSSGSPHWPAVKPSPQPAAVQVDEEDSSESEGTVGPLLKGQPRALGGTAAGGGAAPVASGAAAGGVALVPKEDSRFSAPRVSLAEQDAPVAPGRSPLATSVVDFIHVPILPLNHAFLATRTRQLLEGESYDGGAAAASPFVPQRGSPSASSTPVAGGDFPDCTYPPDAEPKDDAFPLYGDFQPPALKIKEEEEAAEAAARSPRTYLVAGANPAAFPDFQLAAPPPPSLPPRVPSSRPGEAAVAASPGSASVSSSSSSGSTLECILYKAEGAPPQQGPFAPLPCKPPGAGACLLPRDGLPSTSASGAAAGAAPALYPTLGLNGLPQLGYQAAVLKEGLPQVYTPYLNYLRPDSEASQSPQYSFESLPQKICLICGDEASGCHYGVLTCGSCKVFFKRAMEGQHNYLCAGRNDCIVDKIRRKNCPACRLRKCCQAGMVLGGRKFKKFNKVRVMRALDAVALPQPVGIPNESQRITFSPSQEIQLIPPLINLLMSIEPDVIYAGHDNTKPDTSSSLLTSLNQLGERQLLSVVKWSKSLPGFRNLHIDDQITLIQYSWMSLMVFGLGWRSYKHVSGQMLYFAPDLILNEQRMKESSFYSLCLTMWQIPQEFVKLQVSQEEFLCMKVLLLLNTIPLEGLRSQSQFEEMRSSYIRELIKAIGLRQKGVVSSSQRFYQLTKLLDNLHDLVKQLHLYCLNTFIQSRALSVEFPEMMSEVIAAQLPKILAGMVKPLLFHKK
- methodNotes: Receptor binding (rabbit), progestin receptor
- particulars: relative to progesterone = 100; rabbit progestin receptor
Hi, to clarify the labels: Yes covers Relative Binding Affinity, rPR, Relative Affinity (Progesterone) from 60 upward, No covers anything below 60.

# compound, label
rows = [
    ("CC(=O)c1ccc(C2CC3(C)C(CCC34CCC(C)=[N+]4[O-])C3CCC4=CC(=O)CCC4=C23)cc1 (centres unmarked) [II 4-CH3 CO H O H -- CH3]", "No"),
    ("CC#C[C@]1([N+](=O)[O-])CC[C@H]2[C@@H]3CCC4=CC(=O)CCC4=C3[C@@H](c3ccc(N(C)C)cc3)C[C@@]21C [I 4-Me2 N H O H --CC--CH3]", "No"),
    ("CSc1ccc([C@H]2C[C@@]3(C)[C@@H](CC[C@]3(C=CCO)[N+](=O)[O-])[C@@H]3CCC4=CC(=O)CCC4=C32)cc1 [I 4-MeS H O H CH=CHCH2 OH]", "No"),
    ("CC(=O)c1ccc([C@H]2C[C@@]3(C)[C@@H](CC[C@]3(/C=C/CO)[N+](=O)[O-])[C@@H]3CCC4=CC(=O)CCC4=C32)cc1 [I 4-CH3 CO H O H CH=CHCH2 OH]", "No"),
    ("CN(C)c1ccc([C@H]2C[C@@]3(C)[C@@H](CC[C@]3(/C=C/CO)[N+](=O)[O-])[C@@H]3CCC4=CC(=O)CCC4=C32)cc1 [I 4-Me2 N H O H CH=CHCH2 OH]", "No"),
    ("CN(C)c1ccc([C@H]2C[C@@]3(C)[C@@H](CC[C@]3(CCCO)[N+](=O)[O-])[C@@H]3CCC4=CC(=O)CCC4=C32)cc1 [I 4-Me2 N H O H --(CH2)3 OH]", "Yes"),
]

Ask | Is the recorded value of Relative Binding Affinity, rPR, Relative Affinity (Progesterone) equal to or greater than 60 for this compound? CC1=[N+]([O-])C2(CC1)CCC1C3CCC4=CC(=O)CCC4=C3C(c3ccc(N(C)C)cc3)CC12C (centres unmarked) [II 4-Me2 N H O H -- CH3]
Reply | Yes
